test: NCI Yeast Anticancer Drug Screen. Data for the mlh1 rad18 strain (AID 175); details: S. cerevisiae mlh1 rad18 strain growth inhibition; at 50.0 µM; active compounds read high
About 79,000 compounds went through this panel and 15% of them were active in at least one assay; those are over-represented in the sample as a whole.
Observation Type: growth inhibition (%)
Answers are plain numbers, in %.

# example entries with known answers
>  <Molecule>
O=C1Nc2ccccc2/C1=N/N1C(=O)CSC1=S

>  <Result Value>
29.1

$$$$
>  <Molecule>
COC(=O)C(OC)(OC)C(O)c1ccccc1 (configuration not stated)

>  <Result Value>
6.8

$$$$
>  <Molecule>
O=C1C=C(Nc2nc(O)cc(=O)[nH]2)c2ccccc2C1=O

>  <Result Value>
13.5

$$$$
>  <Molecule>
Nc1ccc(S(=O)(=O)NO)cc1

>  <Result Value>
11.3

$$$$
>  <Molecule>
CCCCNC(=O)c1cc2c(cc1Cl)Sc1nccn1S2(=O)=O

>  <Result Value>
28.6

$$$$

Give growth inhibition for each of the items listed below.
1. CN(C)CC(/C(Cc1ccccc1)=N\NC(=S)NN)c1ccccc1 (configuration not stated)
2. COC(=O)CC(c1ccc(OC)cc1)c1cc2c(cc1OC)OCO2 (configuration not stated)
3. CN(C)C1(C(=O)O)c2ccccc2-c2ccccc21
4. C=CCOc1ccc(C2C(C(=O)OCC)C(=O)CC(C)(O)C2C(=O)OCC)cc1OC (configuration not stated)

Result block:
1. 13.7
2. 15.5
3. -3.3
4. -7.45

Can you give me growth inhibition for all of these, one by one?
1. COC1OC(COS(C)(=O)=O)C2OC(C)(C)OC12 (configuration not stated)
2. O=C1CCC(=O)N2CCCCN12
3. O=C(c1ccc(Cl)cc1)N(C(=S)N1CCN(c2ccccc2)CC1)C1CCCCC1

Result block:
[21.9, 13.1, -4.05]
